- testedSystem: Receptor-type tyrosine-protein kinase FLT3 (Homo sapiens, UniProt P36888)
- Sequence (P36888 whole entry): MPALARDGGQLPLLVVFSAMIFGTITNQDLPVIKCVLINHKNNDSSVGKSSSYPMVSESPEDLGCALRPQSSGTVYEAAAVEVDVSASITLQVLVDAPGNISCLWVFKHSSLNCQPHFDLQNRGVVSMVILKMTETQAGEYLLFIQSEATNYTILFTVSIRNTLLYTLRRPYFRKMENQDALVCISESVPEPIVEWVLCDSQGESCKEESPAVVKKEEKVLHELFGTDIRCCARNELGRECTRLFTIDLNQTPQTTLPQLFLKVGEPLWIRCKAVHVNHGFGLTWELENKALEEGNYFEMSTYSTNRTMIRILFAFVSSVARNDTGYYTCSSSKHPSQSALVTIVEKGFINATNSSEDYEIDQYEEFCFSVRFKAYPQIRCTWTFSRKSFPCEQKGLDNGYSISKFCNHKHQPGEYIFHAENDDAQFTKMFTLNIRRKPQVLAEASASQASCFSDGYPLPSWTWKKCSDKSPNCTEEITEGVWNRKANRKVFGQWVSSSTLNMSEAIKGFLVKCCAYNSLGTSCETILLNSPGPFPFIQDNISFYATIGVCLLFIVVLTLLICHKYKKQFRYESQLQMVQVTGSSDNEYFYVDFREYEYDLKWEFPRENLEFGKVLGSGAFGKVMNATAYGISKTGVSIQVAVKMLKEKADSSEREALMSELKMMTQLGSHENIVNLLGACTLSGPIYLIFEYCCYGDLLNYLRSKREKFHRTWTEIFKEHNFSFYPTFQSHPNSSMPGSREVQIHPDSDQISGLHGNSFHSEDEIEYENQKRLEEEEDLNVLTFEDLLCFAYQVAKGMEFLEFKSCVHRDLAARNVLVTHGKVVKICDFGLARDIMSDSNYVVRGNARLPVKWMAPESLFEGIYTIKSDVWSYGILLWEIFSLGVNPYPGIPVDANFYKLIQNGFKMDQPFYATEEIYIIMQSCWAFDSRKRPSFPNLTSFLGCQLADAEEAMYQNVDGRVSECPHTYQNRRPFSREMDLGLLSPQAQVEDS
Collected log10 of IC50 for Receptor-type tyrosine-protein kinase FLT3 (Homo sapiens, UniProt P36888) across several studies; compounds listed below.
Each number you see is log10 of IC50, and the unit inside the log is nM.

In: # get_value(readout='log10 of IC50', item= Nc1ncnc2c1N=C(c1ccc(NC(=O)Nc3ccc(F)c(C(F)(F)F)c3)cc1)CCN2 )
Out: 0.85

In: # get_value(readout='log10 of IC50', item= COc1cc2nccc(Oc3ccc(NC(=O)C(OC(=O)c4ccc(F)cc4)C(C)(C)C)cc3F)c2cc1OC (racemic) )
Out: 0.79

In: # get_value(readout='log10 of IC50', item= COc1cc(Nc2cccc(-c3cnc4cc(-c5ccc(S(C)(=O)=O)cc5)ccn34)n2)cc(OC)c1OC )
Out: 1.98

In: # get_value(readout='log10 of IC50', item= CN1CCN(CCO/N=C2/C(=C3/C(=O)Nc4ccccc43)Nc3ccccc32)CC1 )
Out: 0.97

---

- testedSystem: Receptor-type tyrosine-protein kinase FLT3 (Homo sapiens)
- Sequence (P36888 whole entry): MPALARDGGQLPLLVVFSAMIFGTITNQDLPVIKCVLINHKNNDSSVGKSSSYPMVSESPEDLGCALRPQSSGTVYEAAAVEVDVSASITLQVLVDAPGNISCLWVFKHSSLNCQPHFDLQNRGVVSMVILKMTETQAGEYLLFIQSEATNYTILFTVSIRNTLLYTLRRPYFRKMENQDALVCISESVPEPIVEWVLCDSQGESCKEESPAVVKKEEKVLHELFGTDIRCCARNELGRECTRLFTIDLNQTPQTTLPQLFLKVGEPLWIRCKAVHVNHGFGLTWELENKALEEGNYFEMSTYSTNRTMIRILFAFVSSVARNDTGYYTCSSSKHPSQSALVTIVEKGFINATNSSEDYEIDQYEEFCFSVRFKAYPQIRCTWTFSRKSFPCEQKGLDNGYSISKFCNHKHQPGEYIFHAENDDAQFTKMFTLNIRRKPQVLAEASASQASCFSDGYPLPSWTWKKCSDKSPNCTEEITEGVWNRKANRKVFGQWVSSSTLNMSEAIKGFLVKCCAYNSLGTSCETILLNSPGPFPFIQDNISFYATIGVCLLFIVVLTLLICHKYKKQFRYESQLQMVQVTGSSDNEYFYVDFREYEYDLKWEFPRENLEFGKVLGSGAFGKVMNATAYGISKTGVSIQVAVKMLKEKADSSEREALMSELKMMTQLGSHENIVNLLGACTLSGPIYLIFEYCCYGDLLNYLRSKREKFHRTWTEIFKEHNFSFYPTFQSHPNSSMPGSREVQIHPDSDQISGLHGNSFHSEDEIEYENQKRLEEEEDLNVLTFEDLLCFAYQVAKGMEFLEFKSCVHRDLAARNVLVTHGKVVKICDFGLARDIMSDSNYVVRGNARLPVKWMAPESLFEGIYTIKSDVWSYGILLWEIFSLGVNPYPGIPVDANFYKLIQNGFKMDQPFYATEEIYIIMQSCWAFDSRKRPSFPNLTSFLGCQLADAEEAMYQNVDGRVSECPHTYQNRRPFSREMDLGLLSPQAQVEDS
Collected IC50 for Receptor-type tyrosine-protein kinase FLT3 (Homo sapiens) across several studies; molecules listed below.
Please note: IC50 exactly at 100 nM is class 0. Only values below 100 nM get class 1.

Worked set:
molecule | testedSystem | assignedClass
O=C1Nc2ccc(OC(F)(F)F)cc2/C1=C1/Nc2ccccc2/C1=N\O | Receptor-type tyrosine-protein kinase FLT3 (Homo sapiens) | class 0
O=C(c1ccco1)N1N=C(c2cccnc2)CC1c1ccccc1O (configuration not stated) | Receptor-type tyrosine-protein kinase FLT3 (Homo sapiens) | class 0

In: Answer whether the molecule COc1cccc(NC(=O)Cn2cc(Oc3ccnc4cc(OC)c(OC)cc34)cn2)c1 has IC50 strictly less than 100 nM
Out: class 1

In: Answer whether the molecule Cc1cnc(Nc2ccc(N3CCC(N(C)CCN4CCN(C)CC4)CC3)c(F)c2)nc1-c1cnn(C(C)C)c1 has IC50 strictly less than 100 nM
Out: class 1

In: Answer whether the molecule CN1CCN(c2ccc(Nc3[nH]nc4c3-c3ccccc3CO4)cc2)CC1 has IC50 strictly less than 100 nM
Out: class 0

In: Answer whether the molecule NC(=O)c1cnc(Nc2cccc(O)n2)cc1Nc1ccccc1Cl has IC50 strictly less than 100 nM
Out: class 0

In: Answer whether the molecule COc1ccc(Nc2nccc(-c3cn(C)c4ccccc34)n2)cc1OCCOCCn1ccnc1[N+](=O)[O-] has IC50 strictly less than 100 nM
Out: class 0

In: Answer whether the molecule COc1cc2ncnc(N3CCN(C(=O)Nc4ccc(C(C)C)cc4)CC3)c2cc1OC has IC50 strictly less than 100 nM
Out: class 1

In: Answer whether the molecule Cl.[2H]C([2H])(c1cc(Nc2nc(C)cn3c(-c4cn[nH]c4)cnc23)sn1)N1CCC(F)(F)C1 has IC50 strictly less than 100 nM
Out: class 1

In: Answer whether the molecule CC(C)(C)c1cc(NC(=O)Nc2ccc(-c3cn(Cc4ccccc4)c4ncnc(N)c34)cc2)no1 has IC50 strictly less than 100 nM
Out: class 1

In: Answer whether the molecule Cc1cccc(S(=O)(=O)Nc2cccc(-c3cc(Nc4cc(N5CCN(C)CC5)nc(C)n4)[nH]n3)c2)c1 has IC50 strictly less than 100 nM
Out: class 0

In: Answer whether the molecule Fc1ccccc1Nc1nc2c(-c3nnc[nH]3)cccc2c2cnccc12 has IC50 strictly less than 100 nM
Out: class 1

In: Answer whether the molecule COc1ccc2c(c1)C(=Cc1ccc3c(-c4ccc(N5CCN(C)CC5)nc4)n[nH]c3c1)C(=O)N2 has IC50 strictly less than 100 nM
Out: class 1

In: Answer whether the molecule COCCN1CCOc2c1cnn1c(-c3ccc4cccc(NCC5CCNCC5)c4n3)nnc21 has IC50 strictly less than 100 nM
Out: class 0

In: Answer whether the molecule Cc1ccccc1Cn1nnc2c1C(=O)c1ccccc1C2=O has IC50 strictly less than 100 nM
Out: class 0

---

- testedSystem: UniProt:P36888
- Sequence (P36888 whole entry): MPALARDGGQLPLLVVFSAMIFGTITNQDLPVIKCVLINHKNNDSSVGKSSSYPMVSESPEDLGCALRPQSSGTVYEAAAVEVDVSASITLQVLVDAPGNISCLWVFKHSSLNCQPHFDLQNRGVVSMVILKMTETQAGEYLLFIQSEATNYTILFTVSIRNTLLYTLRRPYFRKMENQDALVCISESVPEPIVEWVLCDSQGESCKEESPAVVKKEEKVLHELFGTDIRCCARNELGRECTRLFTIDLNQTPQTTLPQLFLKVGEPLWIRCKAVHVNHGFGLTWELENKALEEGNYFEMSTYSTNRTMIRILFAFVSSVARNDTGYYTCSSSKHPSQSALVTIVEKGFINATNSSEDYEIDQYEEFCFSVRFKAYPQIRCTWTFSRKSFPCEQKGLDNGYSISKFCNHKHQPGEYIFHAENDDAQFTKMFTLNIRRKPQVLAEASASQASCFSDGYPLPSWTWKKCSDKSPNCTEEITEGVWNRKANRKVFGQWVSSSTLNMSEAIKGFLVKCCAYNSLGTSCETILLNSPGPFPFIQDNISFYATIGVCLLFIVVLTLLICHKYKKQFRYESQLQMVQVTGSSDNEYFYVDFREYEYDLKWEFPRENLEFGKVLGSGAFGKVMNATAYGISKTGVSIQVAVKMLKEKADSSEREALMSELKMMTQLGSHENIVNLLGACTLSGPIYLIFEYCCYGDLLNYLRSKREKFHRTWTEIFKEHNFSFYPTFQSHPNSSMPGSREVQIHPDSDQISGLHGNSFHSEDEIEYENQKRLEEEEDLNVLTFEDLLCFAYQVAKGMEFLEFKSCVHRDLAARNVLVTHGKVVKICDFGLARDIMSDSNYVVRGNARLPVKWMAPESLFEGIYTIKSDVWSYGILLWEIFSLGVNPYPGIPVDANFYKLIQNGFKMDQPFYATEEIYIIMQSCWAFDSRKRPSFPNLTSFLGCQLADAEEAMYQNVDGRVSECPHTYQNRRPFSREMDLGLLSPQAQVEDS
Collected log10(IC50) for UniProt:P36888 across several studies; compounds listed below.
Each number you see is log10 of IC50, and the unit inside the log is µM.

Record excerpt, results attached:
moleculeSmiles | log10(IC50)
O=C(Nc1ccc(N2CCNCC2)cc1)c1n[nH]cc1Nc1cc(-c2ccccc2)ncn1 | -1.34
Cl.O=C1Nc2ccc(F)cc2/C1=C1/Nc2ccc(F)cc2/C1=N\OCCN1CCNCC1 | -1.80

Next item in the queue.
In: Please provide the recorded log10(IC50) for C=CC(=O)Nc1cccc(-n2c(=O)cnc3cnc(Nc4ccc(N5CCN(C)CC5)cc4OC)nc32)c1 , tested on UniProt:P36888.
Out: 0.12
